Source: patent US20180326085A1

# Test target: T1, EGFR (soluble extracellular domain) (human, UniProt P00533)
# T1 construct: soluble extracellular domain; also called Human EGFR extracellular domain, R&D Systems 1095-ER
# Experiment description: BLI (Octet), antibody on anti-human Fc biosensors, soluble EGFR ECD as analyte
Rule: Kd below 20 nM gives rule met. Equal to or above 20 nM gives rule not met.

Here are 3 binders together with their reported answers.
Binder | Assigned category
oa 225-L (antibody, V domains shown, one-armed (monovalent) anti-EGFR SEED molecule) VH: EVQLVQSGAEVKKPGASVKVSCKASGFSLTNYGVHWMRQAPGQGLEWIGVIWRGGNTDYNTPFTSRVTITSDKSTSTAYMELSSLRSEDTAVYYCARALTYYDYEFAYWGQGTLVTVSS VL: DIQMTQSPSSLSASVGDRVTITCRASQSIGTNIHWYQQKPGKAPKLLIKYASESISGVPSRFSGSGYGTDFTLTISSLQPEDVATYYCQQNNNWPTTFGQGTKVEIK | rule not met
oa 225-H (antibody, V domains shown, one-armed (monovalent) anti-EGFR SEED molecule) VH: EVQLVQSGAEVKKPGASVKVSCKASGFSLTNYGVHWMRQAPGQGLEWIGVIWSGGNTDYNTPFTSRVTITSDKSTSTAYMELSSLRSEDTAVYYCARALDYYDYEFAYWGQGTLVTVSS VL: DIQMTQSPSSLSASVGDRVTITCRASQSIGTNIHWYQQKPGKAPKLLIKYASESISGVPSRFSGSGYGTDFTLTISSLQPEDVATYYCQQNNEWPNTFGQGTKVEIK | rule met
oa 425 (antibody, V domains shown, one-armed (monovalent) anti-EGFR SEED molecule) VH: QVQLVQSGAEVKKPGASVKVSCKASGYTFTSHWMHWVRQAPGQGLEWIGEFNPSNGRTNYNEKFKSKATMTVDTSTNTAYMELSSLRSEDTAVYYCASRDYDYDGRYFDYWGQGTLVTVSS VL: DIQMTQSPSSLSASVGDRVTITCSASSSVTYMYWYQQKPGKAPKLLIYDTSNLASGVPSRFSGSGSGTDYTFTISSLQPEDIATYYCQQWSSHIFTFGQGTKVEIKR | rule not met

Is Kd of matuzumab (425) (antibody, V domains shown) VH: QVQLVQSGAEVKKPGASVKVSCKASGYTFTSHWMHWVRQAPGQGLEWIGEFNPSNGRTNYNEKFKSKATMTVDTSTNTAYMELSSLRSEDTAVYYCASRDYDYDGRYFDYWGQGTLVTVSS VL: DIQMTQSPSSLSASVGDRVTITCSASSSVTYMYWYQQKPGKAPKLLIYDTSNLASGVPSRFSGSGSGTDYTFTISSLQPEDIATYYCQQWSSHIFTFGQGTKVEIKG strictly below 20 nM?
rule met

Is Kd of oa225-M (antibody, V domains shown, one-armed (monovalent) anti-EGFR SEED molecule) VH: EVQLVQSGAEVKKPGASVKVSCKASGFSLTNYGVHWMRQAPGQGLEWIGVIWSGGNTDYNTPFTSRVTITSDKSTSTAYMELSSLRSEDTAVYYCARALTYYDYEFAYWGQGTLVTVSS VL: DIQMTQSPSSLSASVGDRVTITCRASQSIGTNIHWYQQKPGKAPKLLIKYASESISGVPSRFSGSGYGTDFTLTISSLQPEDVATYYCQQNYNWPTTFGQGTKVEIK strictly below 20 nM?
rule met
